Numbers sourced from patent US8106055B2.

- experimental_system: serotonin (5-HT) reuptake (Rattus norvegicus)
- Construct: synaptosomes are freshly isolated from areas of the rat brain; from tissue; host or cells: rat brain synaptosomes (P2 fraction)
- Sequence (P31652 whole entry): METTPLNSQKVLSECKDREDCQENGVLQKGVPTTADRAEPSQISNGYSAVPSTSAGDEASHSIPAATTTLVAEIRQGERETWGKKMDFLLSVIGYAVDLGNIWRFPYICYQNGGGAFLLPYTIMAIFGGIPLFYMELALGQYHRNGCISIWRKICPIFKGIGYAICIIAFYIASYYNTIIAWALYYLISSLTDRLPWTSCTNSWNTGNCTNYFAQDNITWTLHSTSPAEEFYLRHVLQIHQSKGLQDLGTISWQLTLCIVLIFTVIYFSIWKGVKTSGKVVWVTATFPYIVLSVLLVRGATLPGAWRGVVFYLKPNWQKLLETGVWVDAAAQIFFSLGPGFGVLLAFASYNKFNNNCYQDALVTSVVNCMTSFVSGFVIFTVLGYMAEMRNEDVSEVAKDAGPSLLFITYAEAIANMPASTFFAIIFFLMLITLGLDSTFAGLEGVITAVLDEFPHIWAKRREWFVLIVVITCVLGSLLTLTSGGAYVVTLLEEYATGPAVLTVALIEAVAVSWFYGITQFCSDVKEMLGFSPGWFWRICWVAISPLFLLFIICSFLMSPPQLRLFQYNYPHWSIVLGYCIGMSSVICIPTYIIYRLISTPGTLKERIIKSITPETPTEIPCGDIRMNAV
- protocol_notes: Inhibition of serotonin (5HT) reuptake in synaptosomes from rat brain
- Assay type: biochemical
- run_conditions: test concentration of 10 μM
Listing of recorded 5-HT (inhibition of reuptake of serotonin, % inhibition) by entry.
Write it as a number; the unit % goes unstated.

Some solved entries appear below for comparison.
| compound | reported |
| --- | --- |
| CN(C)C(c1cccc(F)c1)C1CCC(CCNC(=O)COC2CCN(S(=O)(=O)c3ccc(Cl)cc3)C2)CC1 (stereo not shown) | 89 |
| CN(C)C(c1ccccc1)C1CCC(CNC(=O)COCCC2CCN(S(=O)(=O)c3ccccc3)CC2)CC1 (stereo not shown) | 75 |
| Cc1ccc(S(=O)(=O)N(C)CCOCC(=O)NCC2CCC(C(c3cccc(F)c3)N(C)C)CC2)cc1 (stereo not shown) | 86 |
| COc1ccc(S(=O)(=O)N2CCCCC2COCC(=O)NCCC2CCC(C(c3ccc(F)cc3)N(C)C)CC2)cc1OC (stereo not shown) | 90 |
| CN(C)C(c1ccc(F)cc1)C1CCC(NC(=O)COC2CCCN(S(=O)(=O)c3ccccc3)C2)CC1 (stereo not shown) | 95 |

Exercise: Name the reported 5-HT (inhibition of reuptake of serotonin, % inhibition) value associated with the compound COc1cc(C)c(S(=O)(=O)N2CCCC(OCC(=O)NC3CCC(C(c4ccc(F)cc4)N(C)C)CC3)C2)c(C)c1C (stereo not shown)
Key: 91

Exercise: Name the reported 5-HT (inhibition of reuptake of serotonin, % inhibition) value associated with the compound CN(C)C(CCc1ccccc1)C1CCC(CNC(=O)COCCN(C)S(=O)(=O)c2c(Cl)cc(Cl)cc2Cl)CC1 (stereo not shown)
Key: 97

* * *

Listing of recorded inhibition at 10 µM by entry.
- experimental_system: human bradykinin 1 receptor (B1R) (Homo sapiens)
- Construct: expressed in transfected cells; host or cells: CHO K1 cells
- Sequence (P46663 whole entry): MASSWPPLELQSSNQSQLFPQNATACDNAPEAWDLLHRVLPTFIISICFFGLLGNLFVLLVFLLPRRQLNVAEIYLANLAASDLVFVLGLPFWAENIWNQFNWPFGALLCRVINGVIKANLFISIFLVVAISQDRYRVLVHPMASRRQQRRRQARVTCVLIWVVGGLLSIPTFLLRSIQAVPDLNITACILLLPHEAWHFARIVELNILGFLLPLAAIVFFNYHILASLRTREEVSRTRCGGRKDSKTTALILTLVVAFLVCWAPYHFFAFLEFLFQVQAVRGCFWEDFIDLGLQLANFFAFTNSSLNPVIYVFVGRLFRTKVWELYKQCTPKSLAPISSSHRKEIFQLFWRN
- protocol_notes: Functional investigation on the human bradykinin 1 receptor (B1R), Ca2+ FLIPR assay in CHO K1 hB1R cells
- Format: cell-based
- run_conditions: CHO-K1, B1R antagonism human; test substance 10 μM; Ca2+ FLIPR, CHO K1 hB1R cells; read-out: B1R Ant. h [10 μM] % Inhibition
Write it as a number; the unit % goes unstated.

Exercise: Name the reported inhibition at 10 µM value associated with the compound COc1ccc(S(=O)(=O)N(C)CCOCC(=O)NCC2CCC(C(c3ccccc3)N(C)C)CC2)cc1OC (stereo not shown)
Key: -4

Exercise: Name the reported inhibition at 10 µM value associated with the compound CN(C)C(c1ccccc1)C1CCC(NC(=O)COC2CCCCC2N(C)S(=O)(=O)c2ccc(Cl)c(Cl)c2)CC1 (stereo not shown)
Key: 89

Exercise: Name the reported inhibition at 10 µM value associated with the compound COc1cc(C)c(S(=O)(=O)N2CCCC(OCC(=O)NC3CCC(C(c4cccs4)N(C)C)CC3)C2)c(C)c1C (stereo not shown)
Key: 20

Exercise: Name the reported inhibition at 10 µM value associated with the compound COc1ccc(S(=O)(=O)N(C)CCOCC(=O)NCCC2CCC(C(c3cccs3)N(C)C)CC2)cc1 (stereo not shown)
Key: 28

* * *

- experimental_system: human bradykinin 1 receptor (B1R) (Homo sapiens)
- Construct: expressed in transfected cells; host or cells: CHO K1 cells
- protocol_notes: Functional investigation on the human bradykinin 1 receptor (B1R), Ca2+ FLIPR assay in CHO K1 hB1R cells
- Format: cell-based
- run_conditions: CHO-K1, B1R antagonism human; test substance 10 μM; Ca2+ FLIPR, CHO K1 hB1R cells; read-out: B1R Ant. h [10 μM] % Inhibition
property_name: inhibition at 10 µM (%)
Write it as a number; the unit % goes unstated.

Some solved entries appear below for comparison.
| compound | reported |
| --- | --- |
| COc1ccc(S(=O)(=O)N2CCCCC2COCC(=O)NCC2CCC(C(c3ccccc3)N(C)C)CC2)cc1 (stereo not shown) | 80 |
| CN(CCOCC(=O)NCC1CCC(C(c2ccccc2)N2CCCC2)CC1)S(=O)(=O)c1c(Cl)cc(Cl)cc1Cl (stereo not shown) | 105 |
| CN(C)C(c1ccccc1)C1CCC(CNC(=O)COCCN(C)S(=O)(=O)c2ccc(Cl)cc2)CC1 (stereo not shown) | 21 |

Field: next compound
Exercise: Name the reported inhibition at 10 µM value associated with the compound Cc1ccc(S(=O)(=O)N2CCC(OCC(=O)NC3CCC(C(c4ccccc4)N(C)C)CC3)C2)cc1 (stereo not shown)
Key: -6
